System: GST-Bcl-2
Experiment: TR-FRET binding assay, Bcl-2
Settings: TR-FRET Ki values
READOUT: Binding selectivity ratio (Bcl-XL Ki/Bcl-2 Ki)

- COMPOUND: "CC1CC(=O)NN=C1c1ccc(S(=O)(=O)NC(=O)c2ccc(N3CCN(Cc4ccccc4-c4ccc(Cl)cc4)CC3)cc2Oc2ccccc2)cc1 (stereo not drawn)"
  RECORDED MEASUREMENT: ">55.4"
- COMPOUND: "CN(C)CCOc1cccc(-c2ccc(Cl)cc2)c1CN1CCN(c2ccc(C(=O)NS(=O)(=O)c3ccc(NCC4CCOCC4)c([N+](=O)[O-])c3)c(Oc3cccc4[nH]ccc34)c2)CC1"
  RECORDED MEASUREMENT: 7117.6
- COMPOUND: "CNc1ccc(S(=O)(=O)NC(=O)c2ccc(N3CCN(CC4=C(c5ccc(Cl)cc5)CC(C)(C)CC4)CC3)cc2Oc2ccc3[nH]ccc3c2)cc1[N+](=O)[O-]"
  RECORDED MEASUREMENT: ">408.2"

---

Test system: FL5.12/Bcl-2 cells
Experiment: FL5.12/Bcl-2 cell viability assay
Assay type: cell-based, murine
Details: ratio of canine platelet EC50 to FL5.12/Bcl-2 EC50
Mark each entry true (1) if its Selectivity Ratio (Platelet EC50/FL5.12/Bcl-2 EC50) sits below 700, and false (0) for all others.

- COMPOUND: "CC1(C)CCC(CN2CCN(c3ccc(C(=O)NS(=O)(=O)c4ccc(NCCCN5CCOCC5)c([N+](=O)[O-])c4)c(Oc4ccc5[nH]ccc5c4)c3)CC2)=C(c2ccc(Cl)cc2)C1 [Example 52]"
  EXPERIMENTAL SYSTEM: "FL5.12/Bcl-2 cells"
  CLASS LABEL: "false (0)"
- COMPOUND: "CN1CCC(Nc2ccc(S(=O)(=O)NC(=O)c3ccc(N4CCN(CC5=C(c6ccc(Cl)cc6)CCC5)CC4)cc3Oc3cccc4[nH]ccc34)cc2[N+](=O)[O-])CC1 [Example 148]"
  EXPERIMENTAL SYSTEM: "FL5.12/Bcl-2 cells"
  CLASS LABEL: "true (1)"
- COMPOUND: "CN1CCC(CNc2ccc(S(=O)(=O)NC(=O)c3ccc(N4CCN(Cc5ccccc5-c5ccc(Cl)cc5)CC4)cc3Oc3ccccc3)cc2[N+](=O)[O-])CC1 [Example 88]"
  EXPERIMENTAL SYSTEM: "FL5.12/Bcl-2 cells"
  CLASS LABEL: "true (1)"
- COMPOUND: "COc1ccc(C2=C(CN3CCN(c4ccc(C(=O)NS(=O)(=O)c5ccc(NCCCN6CCCC6)c([N+](=O)[O-])c5)c(Oc5cccc6[nH]ccc56)c4)CC3)CCC(C)(C)C2)cc1 [Example 68]"
  EXPERIMENTAL SYSTEM: "FL5.12/Bcl-2 cells"
  CLASS LABEL: "false (0)"
- COMPOUND: "CN(C)CCCNc1ccc(S(=O)(=O)NC(=O)c2ccc(N3CCN(Cc4ccccc4-c4ccc(Cl)cc4)CC3)cc2Oc2cccc3[nH]ccc23)cc1[N+](=O)[O-] [Example 46]"
  EXPERIMENTAL SYSTEM: "FL5.12/Bcl-2 cells"
  CLASS LABEL: "false (0)"
- COMPOUND: "CN(C)CCCOc1ccc(S(=O)(=O)NC(=O)c2ccc(N3CCN(CC4=C(c5ccc(Cl)cc5)CC(C)(C)CC4)CC3)cc2Oc2cccc3[nH]ccc23)cc1[N+](=O)[O-] [Example 106]"
  EXPERIMENTAL SYSTEM: "FL5.12/Bcl-2 cells"
  CLASS LABEL: "false (0)"
- COMPOUND: "CC1(C)CCC(CN2CCN(c3ccc(C(=O)NS(=O)(=O)c4ccc(NC5CCN(C6CCOCC6)CC5)c([N+](=O)[O-])c4)c(Oc4ccc5[nH]ccc5c4)c3)CC2)=C(c2ccc(Cl)cc2)C1 [Example 173]"
  EXPERIMENTAL SYSTEM: "FL5.12/Bcl-2 cells"
  CLASS LABEL: "false (0)"
- COMPOUND: "CN(C)CCCOc1ccc(S(=O)(=O)NC(=O)c2ccc(N3CCN(Cc4ccccc4-c4ccc(Cl)cc4)CC3)cc2Oc2ccccc2)cc1[N+](=O)[O-] [Example 94]"
  EXPERIMENTAL SYSTEM: "FL5.12/Bcl-2 cells"
  CLASS LABEL: "true (1)"
